# Tested on: MONOCYTES
# ASSAY: Disease to normal ratio of enzyme activity, monocytes (Table 5)
# Assay type: cell-based, human
# CONDITIONS USED: Kawasaki's, monocytes
Numbered stars: 1 amine (or outer) side, 2 acyl side, 3 side chain; on linkers, the order of the positions; unused ones are H or OH. Bridge positions count the residues as written; N and C are the ends. Peptide text beside a SMILES is read from it. I, II: the chains in the order shown. Rhodamine110 = O=C1OC2(c3ccc(N[*:1])cc3Oc3cc(N[*:2])ccc32)c2ccccc21
READOUT KIND: Ratio of disease to normal

Request: What value of measured Ratio of disease to normal is listed for N=C(N)NCCC[C@H](N)C(=O)NCC(=O)N[C@@H](CCC(=O)O)C(=O)N[C@@H](CO)C(=O)Nc1ccc2c(c1)Oc1cc(NC(=O)[C@H](CO)NC(=O)[C@H](CCC(=O)O)NC(=O)CNC(=O)[C@@H](N)CCCNC(=N)N)ccc1C21OC(=O)c2ccccc21 (stereo partly drawn) [RGES, (Arg-Gly-Glu-Ser)2 Rho 110] (I: H-RGES / II: H-RGES; linker I:C-II:C via Rhodamine110) ?
Result: 4.65

Request: What value of measured Ratio of disease to normal is listed for C[C@H](NC(=O)[C@@H](N)CCCCN)C(=O)Nc1ccc2c(c1)Oc1cc(NC(=O)[C@H](C)NC(=O)[C@@H](N)CCCCN)ccc1C21OC(=O)c2ccccc21 [KA, (Lys-Ala)2 Rho 110] ?
Result: 2.22

Request: What value of measured Ratio of disease to normal is listed for C[C@H](N)C(=O)Nc1ccc2c(c1)Oc1cc(NC(=O)[C@H](C)N)ccc1C21OC(=O)c2ccccc21 [ALA, (Ala)2 Rho 110] ?
Result: 1.36

Request: What value of measured Ratio of disease to normal is listed for CC(=O)Oc1ccc2c(c1)Oc1cc(OC(C)=O)ccc1C21OC(=O)c2ccccc21 [FDA-NAF, reference compound] ?
Result: 0.58

Request: What value of measured Ratio of disease to normal is listed for C[C@H](NC(=O)[C@@H](N)CCCCN)C(=O)Nc1ccc2c(c1)Oc1cc(NC(=O)[C@H](C)NC(=O)[C@@H](N)CCCCN)ccc1C21OC(=O)c2ccccc21 [KA-M, (Lys-Ala)2 Rho 110] ?
Result: 7.08

Request: What value of measured Ratio of disease to normal is listed for NCC(=O)Nc1ccc2c(c1)Oc1cc(NC(=O)CN)ccc1C21OC(=O)c2ccccc21 [GLY, (Gly)2 Rho 110] ?
Result: 3.83

----------
Hi there, I'd appreciate the recorded Ratio of disease to normal for every entry that follows.
# System: LYMPHOCYTES
# ASSAY: Disease to normal ratio of enzyme activity, lymphocytes (Table 5)
# Format: cell-based, human
# CONDITIONS USED: JRA
Numbered stars: 1 amine (or outer) side, 2 acyl side, 3 side chain; on linkers, the order of the positions; unused ones are H or OH. Bridge positions count the residues as written; N and C are the ends. Peptide text beside a SMILES is read from it. I, II: the chains in the order shown. Rhodamine110 = O=C1OC2(c3ccc(N[*:1])cc3Oc3cc(N[*:2])ccc32)c2ccccc21
The response must contain the number and no unit.

Request: What value of measured Ratio of disease to normal is listed for C[C@H](NC(=O)CNC(=O)[C@H](Cc1ccccc1)NC(=O)CN)C(=O)Nc1ccc2c(c1)Oc1cc(NC(=O)[C@H](C)NC(=O)CNC(=O)[C@H](Cc3ccccc3)NC(=O)CN)ccc1C21OC(=O)c2ccccc21 [GFGA, (Gly-Phe-Gly-Ala)2 Rho 110] (I: H-GFGA / II: H-GFGA; linker I:C-II:C via Rhodamine110) ?
Result: 2.03

Request: What value of measured Ratio of disease to normal is listed for C[C@H](N)C(=O)Nc1ccc2c(c1)Oc1cc(NC(=O)[C@H](C)N)ccc1C21OC(=O)c2ccccc21 ?
Result: 1.59

Request: What value of measured Ratio of disease to normal is listed for C[C@H](NC(=O)[C@@H](N)CCCCN)C(=O)Nc1ccc2c(c1)Oc1cc(NC(=O)[C@H](C)NC(=O)[C@@H](N)CCCCN)ccc1C21OC(=O)c2ccccc21 ?
Result: 1.46

Request: What value of measured Ratio of disease to normal is listed for C[C@@H](O)[C@H](NC(=O)OCc1ccccc1)C(=O)N1CCC[C@H]1C(=O)Nc1ccc2c(c1)Oc1cc(NC(=O)[C@@H]3CCCN3C(=O)[C@@H](NC(=O)OCc3ccccc3)[C@@H](C)O)ccc1C21OC(=O)c2ccccc21 ?
Result: 2.89

Request: What value of measured Ratio of disease to normal is listed for O=C(NCC(=O)N1CCC[C@H]1C(=O)Nc1ccc2c(c1)Oc1cc(NC(=O)[C@@H]3CCCN3C(=O)CNC(=O)OCc3ccccc3)ccc1C21OC(=O)c2ccccc21)OCc1ccccc1 ?
Result: 1.29
